Let's look at some molecules and their measured growth rescue (activation).
assay.name: qHTS of TDP-43 Inhibitors; note: nearly all actives have a fitted effect of over 50% in size; for growth rescue (activation): % of control where 0% means no effect
experimental.conditions: TDP-43 expressing yeast growth rescue, BacTiter-Glo, 24 h; series mostly up to 46.1 µM
About 7,200 (1.8%) of roughly 410,000 compounds were called active. About 7% were inconclusive and are not listed. For the sample, actives were picked, then their nearest neighbours and some compounds at random.
property.measured: growth rescue (activation)

| molecule | property.measured | result |
| --- | --- | --- |
| Cc1ccc(S(=O)(=O)N2CCCc3cc(NS(=O)(=O)c4cc(C)ccc4C)ccc32)cc1 | growth rescue (activation) | 0% [at 9.22 µM] (inactive) |
| CC(=O)c1ccc(N2CCN(CC(=O)Nc3ccccc3N3CCOCC3)CC2)cc1 | growth rescue (activation) | -6.9% [at 9.22 µM] (inactive) |
| COCCCNC(=S)N1CCCC(c2nc3cc(C)c(C)cc3[nH]2)C1 (stereo not given) | growth rescue (activation) | -14.1% [at 0.397 µM] (inactive) |
| COc1ccccc1NC(=O)c1cc(C2CC2)nc2c1c(C)nn2-c1ccc(C)cc1 | growth rescue (activation) | 0% [at 9.22 µM] (inactive) |
| CCOc1ccc(OCC)c(NC(=O)c2cc(C)nc3c2c(C)nn3-c2cccc(Cl)c2C)c1 | growth rescue (activation) | 19.8% [at 9.22 µM] (inactive) |
| Cc1ccc(CNC(=O)CCC(=O)N2Cc3ccccc3Oc3ncccc32)cc1 | growth rescue (activation) | 14.9% [at 9.22 µM] (inactive) |
| Cc1c(Cl)cccc1-c1ccc(CNCCCSc2nnnn2C)o1 | growth rescue (activation) | 0% [at 9.22 µM] (inactive) |
| CCOc1ccc(NC(=O)c2cnn(-c3ccccc3)c2-n2cccc2)cc1 | growth rescue (activation) | -9.72% [at 9.22 µM] (inactive) |
| CN(C)CCCNC(=S)N1CCN(c2nc(-c3ccccc3)cs2)CC1 | growth rescue (activation) | -17.3% [at 1.82 µM] (inactive) |
| CN(C)c1cccc(C(=O)Nc2nc3ccc(S(=O)(=O)NC(C)(C)C)cc3s2)c1 | growth rescue (activation) | 6.18% [at 9.22 µM] (inactive) |
| CC1Cc2ccccc2N1C(=O)CSc1nnc(C2CC2)n1C (stereo not given) | growth rescue (activation) | 1.9% [at 9.22 µM] (inactive) |
| O=C(CN1C(=O)CCn2nc(-c3ccccc3)cc21)NCc1ccccc1 | growth rescue (activation) | 18.2% [at 9.22 µM] (inactive) |
| O=C(OCC(=O)N1CCOCC1)c1ccc(N2CCOCC2)c([N+](=O)[O-])c1 | growth rescue (activation) | 7.7% [at 9.22 µM] (inactive) |
| COc1cc(C(=O)N2CCC(c3ccncc3)CC2)cc(OC)c1OC | growth rescue (activation) | -21.7% [at 9.22 µM] (inactive) |
| COc1ccc(Br)cc1C1CC(=O)Nc2c1c(C)nn2-c1nc(C)cc(C)n1 (stereo not given) | growth rescue (activation) | 10.5% [at 9.22 µM] (inactive) |
| COc1ccc(C(=O)c2oc3ccccc3c2NC(=O)COc2cccc(C)c2)cc1 | growth rescue (activation) | 9.29% [at 9.22 µM] (inactive) |
| Cc1[nH]c2ccccc2c1-c1ccc(Cl)nn1 | growth rescue (activation) | -8.17% [at 9.22 µM] (inactive) |
| Cc1ccccc1-c1nc(SCC(=O)N(C)c2ccccc2)c2c(=O)n(C)c(=O)n(C)c2n1 | growth rescue (activation) | 0% [at 9.22 µM] (inactive) |
| COc1ccc(NC(=O)C(c2ccccc2)N2Cc3ccccc3C2=O)cc1 (stereo not given) | growth rescue (activation) | 0% [at 9.22 µM] (inactive) |
| Cn1nnnc1SCCCNCc1ccc(Cl)cc1 | growth rescue (activation) | 7.89% [at 9.22 µM] (inactive) |

====

assay.name: qHTS of TDP-43 Inhibitors; note: nearly all actives have a fitted effect of over 50% in size
experimental.conditions: TDP-43 expressing yeast growth rescue, BacTiter-Glo, 24 h; series mostly up to 46.1 µM
Among all 410,000 compounds or so, about 7,200 (1.8%) were called active. Roughly 7% stayed inconclusive and do not appear here. Calls follow the shape of the dose curve; as a rule, active = well fitted activation curve with a large enough effect; inconclusive = small, poorly fitted or top-dose-only effect, or another doubt; inactive = no such curve, though single readings can be large or run the other way. For the sample, actives were picked, then their nearest neighbours and some compounds at random.
Outcome codes: active, inactive

| compound | qualitative.label |
| --- | --- |
| COc1cc(NC(=O)CSc2ccc(-c3cccnc3)nn2)cc(OC)c1 | inactive |
| Cc1cc(Br)ccc1NC(=O)Cn1cnc2sc(C)c(S(=O)(=O)N3CCN(C)CC3)c2c1=O | inactive |
| COc1cc(OC)cc(-c2nc3nc(C)c(CCC(=O)Nc4ccc(C)cc4)c(C)n3n2)c1 | inactive |
| O=C(Nc1cccc2cccnc12)c1cccc(Cl)c1 | active |
| Cc1ccc(C)c(N2CCN(c3ccc4cc(S(=O)(=O)N5CCC(C)CC5)ccc4n3)CC2)c1 | inactive |
| O=C(CSCc1ccc([N+](=O)[O-])cc1)NCCSCc1ccccc1 | active |
| Cc1ccc(-c2nn3c(=O)cc(CN4CCN(C(=O)Nc5cccc(C(F)(F)F)c5)CC4)nc3s2)cc1 | inactive |
| COc1cccc(CN2CCc3nc(SCC(=O)Nc4ccccc4)[nH]c(=O)c3C2)c1 | inactive |
| CC1CCCCN1Cc1c(O)ccc2c(=O)c(-c3cccc(Cl)c3)c(C(F)(F)F)oc12 (stereo not given) | inactive |
| CC1CCc2noc(NC(=O)c3ccc([N+](=O)[O-])cc3)c2C1 (stereo not given) | inactive |

====

assay.name: qHTS of TDP-43 Inhibitors; note: nearly all actives have a fitted effect of over 50% in size
experimental.conditions: TDP-43 expressing yeast growth rescue, BacTiter-Glo, 24 h; series mostly up to 46.1 µM
Among all 410,000 compounds or so, about 7,200 (1.8%) were called active. Not shown: some 7% with an inconclusive outcome. The list comes from a sample in which actives are over-represented; it also holds close analogues and randomly drawn compounds.

| compound | outcome |
| --- | --- |
| CCOC(=O)c1c(SCC(=O)Nc2cccc(C)c2C)nc(=O)[nH]c1C | inactive |
| COc1ccc(NC(=O)N2CCCn3nc(C)cc32)cc1OC | inactive |
| N#Cc1ccc(C(C(=O)NCc2ccccc2)n2c(=O)c(-c3ccco3)nc3ccccc32)cc1 (stereo not given) | inactive |
| CCC1CCCCN1C(=O)Cn1c(=O)n(CCCCCC(=O)NCc2ccccc2)c(=O)c2sccc21 (stereo not given) | inactive |
| CCCCN(C)CCCNC(=O)CN1N=C(c2ccc(OC)cc2)CCC1=O | inactive |
| Cc1oc2ccc(O)c(CN3CCC(C)CC3)c2c1C(=O)Nc1ccccc1 | inactive |
| CCc1ccc(NC(=O)C2CCCN2S(=O)(=O)c2ccc3nc(-c4ccccc4)[nH]c3c2)cc1 (stereo not given) | inactive |
| O=C(Cn1c(=O)n(Cc2ccccc2)c(=O)c2sc3ccccc3c21)Nc1ccccc1F | inactive |
| COc1cc2[nH]c(=O)n(Cc3ccc(C(=O)NCc4ccc(C)cc4)cc3)c(=O)c2cc1OC | inactive |
| COc1ccc(Cc2nnc(SCC(=O)c3cccc([N+](=O)[O-])c3)n2C)cc1 | inactive |

====

assay.name: qHTS of TDP-43 Inhibitors; note: nearly all actives have a fitted effect of over 50% in size
experimental.conditions: TDP-43 expressing yeast growth rescue, BacTiter-Glo, 24 h; series mostly up to 46.1 µM
Screen size: about 410,000 compounds; about 7,200 (1.8%) were called active. Not shown: some 7% with an inconclusive outcome. The call rests on the fitted dose curve; in most records, active means well fitted activation curve with a large enough effect; inconclusive means small, poorly fitted or top-dose-only effect, or another doubt; inactive means no such curve, though single readings can be large or run the other way. The sample holds actives, similar compounds and a random draw of the others, so the mix is not that of the screen.
Labels: active, inactive

| molecule | qualitative.label |
| --- | --- |
| CCN(Cc1ccccc1)Cc1c(O)ccc2c(=O)c(-c3ccc(Cl)cc3Cl)coc12 | inactive |
| C=C(Br)Cn1c(CCCC)nc2ccccc21 | inactive |
| COCc1nc2ccccc2n1Cc1ccccc1Br | active |
| O=C(Nc1ccc(-c2nc3cc(NC(=O)c4ccccc4Cl)ccc3o2)cc1)c1ccccc1Cl | inactive |
| O=C(Nc1nnc(-c2ccc(Cl)cc2)o1)c1ccccc1Br | active |
| COc1ccc(OC)c(CNC(=O)Cn2nc(C)c3c(C)n(-c4ccccc4)nc3c2=O)c1 | inactive |
| Cc1ccc2cccc(NC(=O)c3ccc(OC(C)C)cc3)c2n1 | active |
| CCc1ccc(C2CC(=O)c3c([nH]c(C(=O)OCc4ccc(C)cc4)c3C)C2)cc1 (stereo unspecified) | inactive |
| O=C(COC(=O)c1ccc(Oc2ccccc2)cc1)Nc1nnc(-c2ccccc2)o1 | active |
| COc1ccc(Br)cc1CNC(=O)c1cc(=O)[nH]c2ccc(S(=O)(=O)N3CCCC3)cc12 | inactive |
| CC(C)c1ccc(Cn2c(COc3ccccc3)nc3ccccc32)cc1 | inactive |
| O=C(COC(=O)c1ccccc1Br)Nc1nnc(-c2ccccc2)o1 | active |
| O=C(c1cccc2ccccc12)N1CCN(c2ccccc2F)CC1 | active |
| Cc1ccc(S(=O)(=O)c2nc(-c3ccco3)oc2SCC(=O)Nc2ccc(F)cc2)cc1 | inactive |
| O=C(c1ccc(CN2CCOCC2)cc1)N1CCN(c2ccccc2F)CC1 | inactive |
| O=C(COC(=O)CSc1nnc(-c2ccc(Cl)cc2)o1)Nc1cc(Cl)cc(Cl)c1 | inactive |
| COc1cccc(Cn2c(SCc3ccc(C(=O)N4CCC(C)CC4)cc3)nc3ccncc32)c1 | inactive |
| COc1cc(OC)c(OC)cc1CN1CCN(C(=O)c2cccc3ccccc23)CC1 | inactive |
| Cc1ccc(C(=O)N2CCc3cc(CNC(=O)c4ccc(Br)cc4)ccc32)cc1 | inactive |
| CC(C)CNC(=O)COC(=O)c1ccccc1OCC(=O)Nc1ccc(Br)cc1 | inactive |
| Cc1ccc(Cn2c(=O)n(Cc3nc(-c4ccccc4)no3)c(=O)c3cc4c(cc32)OCO4)cc1 | inactive |
